Reference source for all entries: paper PMC11871066

- Tested on: trypsin
- Procedure summary: Trypsin proteolytic resistance assay
- Condition label: immobilized trypsin-agarose resin
Bridge positions count the residues as written; N and C are the ends. Square brackets hold non-standard residues; d marks the D form. Peptide text beside a SMILES is read from it. * marks the point of attachment. Myristoyl = CCCCCCCCCCCCCC(=O)*; R8 = C=CCCCCCC[C@@](C)(N)C(=O)O; S5 = C=CCCC[C@](C)(N)C(=O)O
Result type: remaining at 48 h, 100 µM (%)
Please state the figure in %; there is no need to write the unit.

Use the examples below as a reference point.
CC(=O)N[C@@H](CC(N)=O)C(=O)N[C@@H](CC(C)C)C(=O)N[C@]1(C)CCCCCCC=CCCC[C@@](C)(C(=O)N[C@@H](CCC(=O)O)C(=O)N[C@@H](CC(C)C)C(=O)N[C@@H](CC(N)=O)C(N)=O)NC(=O)[C@H](CC(C)C)NC(=O)[C@H](CC(C)C)NC(=O)[C@H](CCCNC(=N)N)NC(=O)[C@H](CC(=O)O)NC(=O)[C@H](CC(C)C)NC(=O)[C@H](CCC(=O)O)NC1=O: 31
CCCCCCCCCCCCCC(=O)N[C@@H](CC(N)=O)C(=O)N[C@@H](CC(C)C)C(=O)N[C@]1(C)CCCCCCC=CCCC[C@@](C)(C(=O)N[C@@H](CCC(=O)O)C(=O)N[C@@H](CCC(=O)O)C(=O)N[C@@H](CC(N)=O)C(N)=O)NC(=O)[C@H](CC(C)C)NC(=O)[C@H](CC(C)C)NC(=O)[C@H](CCCNC(=N)N)NC(=O)[C@H](CC(=O)O)NC(=O)[C@H](CCC(=O)O)NC(=O)[C@H](CCC(=O)O)NC1=O [compound 2020] (Myristoyl-NL[R8]EEDRLL[S5]EEN-NH2; staple 3-10): 89

# evaluate next
Request: Suppose we examine the compound CC(=O)N[C@@H](CC(N)=O)C(=O)N[C@@H](CC(C)C)C(=O)N[C@@H](CO)C(=O)N[C@@H](CCC(=O)O)C(=O)N[C@@H](CC(C)C)C(=O)N[C@@H](CC(=O)O)C(=O)N[C@@H](CCCNC(=N)N)C(=O)N[C@@H](CC(C)C)C(=O)N[C@@H](CC(C)C)C(=O)N[C@@H](CC(C)C)C(=O)N[C@@H](CCC(=O)O)C(=O)N[C@@H](CC(C)C)C(=O)N[C@@H](CC(N)=O)C(N)=O [LD2, reference compound] ; what remaining at 48 h, 100 µM value has been reported?
Result: 0

---

- Procedure summary: in vivo
- Condition label: female, Balb/cJ, mouse, ip
Result type: Cmax (µg/mL)
Please state the figure in µg/mL; there is no need to write the unit.

Request: Suppose we examine the compound `CCCCCCCCCCCCCC(=O)N[C@@H](CC(N)=O)C(=O)N[C@@H](CC(C)C)C(=O)N[C@]1(C)CCCCCCC=CCCC[C@@](C)(C(=O)N[C@@H](CCC(=O)O)C(=O)N[C@@H](CC(C)C)C(=O)N[C@@H](CC(N)=O)C(N)=O)NC(=O)[C@H](CC(C)C)NC(=O)[C@H](CC(C)C)NC(=O)[C@H](CCCNC(=N)N)NC(=O)[C@H](CC(=O)O)NC(=O)[C@H](CC(C)C)NC(=O)[C@H](CCC(=O)O)NC1=O` ; what Cmax value has been reported?
Result: 89.4
